Tested on: NIM1
Construct: gene MGC42105
Conditions: Compound Concentration (nM):1000;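 note: KINOMEscan scanMAX binding as percent activity remaining versus control; lower means stronger binding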
Field: Percent Control. Provide a value for each of the molecules that follow.
Just the number please, in %, no unit attached.

Query: Reported Percent Control for Cl.O=C(Nc1ccc(Oc2ccc3[nH]c(NC(=O)c4ccccc4)nc3c2)cc1)Nc1cc(C(F)(F)F)ccc1F [GW709042A] : what is it?
Result: 88

Query: Quick one: Percent Control for CN(C)CCNC(=O)Nc1ccc(N(C)c2ccnc(Nc3ccc(CS(C)(=O)=O)cc3)n2)cc1.Cl [GW830900A] ?
Result: 88

Query: For CCc1ccc(Oc2nccc(-c3c(-c4ccc(F)cc4)ncn3C3CCNCC3)n2)cc1 [SB-242719] , what is its reported Percent Control?
Result: 83

Query: Fill in the blank: the reported Percent Control of COc1cc2ncnc(Nc3ccc4c(cnn4Cc4ccccc4)c3)c2cc1OC.Cl [GW282449A] is ____.
Result: 100

Query: Field request: Percent Control | item: O=C1Nc2ccc(C(=O)c3ccco3)cc2C1=Cc1cc(Cl)c(O)c(Cl)c1 [GW406108X]
Result: 93

###

Test system: LZK
Construct: gene MAP3K13
Details: Compound Concentration (nM):1000
I'd be grateful if you could share measured Percent Control for these entries.

Query: Item "CCn1c(-c2nonc2N)nc2c(C#CC(C)(C)O)nc(OCCNC)cc21.Cl" has what recorded Percent Control?
Result: 91%

Query: Please report the recorded Percent Control for COc1cccc(-c2c[nH]c3c(N/N=C/c4ccncc4)ncnc23)c1 [GW814408X] .
Result: 93%

Query: Reported Percent Control for "COc1ccc2cc(-c3c(-c4ccncc4)nc(-c4ccc(S(C)(=O)=O)cc4C)n3C)ccc2c1" : what is it?
Result: 65%

Query: Request the reported Percent Control associated with CC(C)COC(=O)c1ccc2c(c1)/C(=C/Nc1ccc(S(N)(=O)=O)cc1)C(=O)N2 [GW416981X]
Result: 100%

###

Tested on: PFTAIRE2
Construct: gene CDK15
Conditions: Compound Concentration (nM):1000
Task for the reader: assign each of the following compounds its reported Percent Control.
Give the quantity in %, number only.

Query: What measured Percent Control goes with COc1cc(N2CCN(C(C)C)CC2)ccc1Nc1nc(Nc2ccc(F)cc2C(=O)NC[C@@H](O)CO)c2cc[nH]c2n1 [GSK1392956A] ?
Result: 100

Query: Percent Control lookup needed for Cl.O=C(Nc1ccc(Oc2ccc3[nH]c(NC(=O)c4ccco4)nc3c2)cc1)Nc1cc(C(F)(F)F)ccc1F [GW683134A] , thanks.
Result: 87

Query: Reported Percent Control for "O=C(Nc1n[nH]c2nc(-c3ccc(O)cc3)c(Br)cc12)C1CC1" : what is it?
Result: 92

Query: Can you share its Percent Control? I mean this compound: COc1cccc(-c2c[nH]c3c(N/N=C/c4ccncc4)ncnc23)c1 [GW814408X]
Result: 78

###

Can you tell me Percent Control for the items I'm about to list?
Tested on: CAMKK2
Conditions: Compound Concentration (nM):1000
Return type: number; implicit unit %.

Query: Look at this compound and give its reported Percent Control. NS(=O)(=O)c1ccc(N/N=C2\C(=O)Nc3ccc(Cl)cc32)cc1 [GW280670X]
Result: 100

Query: Using the record for COc1cc2ncnc(Nc3ccc4c(cnn4Cc4ccccc4)c3)c2cc1OC.Cl [GW282449A] , report its Percent Control.
Result: 100

Query: What does the data say about its Percent Control? Entry: COc1ccc2cc(-c3c(-c4ccncc4)nc(-c4ccc(S(C)(=O)=O)cc4C)n3C)ccc2c1 [SB-633825]
Result: 73

Query: Could you tell me which Percent Control is on file for COc1cccc(-c2c[nH]c3c(N/N=C/c4ccncc4)ncnc23)c1 [GW814408X] ?
Result: 95

Query: Percent Control; subject: NS(=O)(=O)c1ccc(N/N=C2\C(=O)Nc3ccc(-c4cnco4)cc32)cc1 [GW276655]
Result: 83

Query: Which Percent Control value is on record for COc1cc(C)c(N(C)C(=O)CN(C)C)cc1Nc1nc(Nc2cccc(F)c2C(N)=O)c2cc[nH]c2n1 [GSK2219385] ?
Result: 94

Query: Which Percent Control reading was recorded for the compound COc1ccccc1-c1cc(/C=C2\C(=O)Nc3ncc(Br)cc32)cc(Br)c1O [GW442130X] ?
Result: 100

Query: Record request: Percent Control value, item NS(=O)(=O)c1ccc(Nc2ncc(-c3ccccc3)o2)cc1 [GW572399X]
Result: 100

Query: Look up Percent Control for this compound: CC1=C(C(=O)Nc2ccc3[nH]ncc3c2)C(c2ccc(Cl)c(Cl)c2)CC(=O)N1 (stereo not shown) [GSK299115A]
Result: 85

Query: Value lookup for Percent Control; key = CCS(=O)(=O)c1ccc(OC)c(Nc2ncc(-c3cccc(F)c3)o2)c1 [GW621970X]
Result: 100

Query: Suppose we examine the compound Cl.O=S1CCN(Cc2ccc(-c3ccc4ncnc(Nc5ccc(OCc6ccccc6)c(F)c5)c4c3)o2)CC1 [GW576924A] ; what Percent Control value has been reported?
Result: 100

Query: What measured Percent Control goes with COc1ccc2c(-c3ccnc(Nc4cccc(OC(F)(F)F)c4)n3)cnn2n1 [GW810372X] ?
Result: 81

Query: For the compound shown here, Nc1ncnc2occ(-c3ccc(NC(=O)Nc4cc(C(F)(F)F)ccc4F)cc3)c12 [GW770249X] , give the reported Percent Control.
Result: 82

###

System: STK16
Conditions: Compound Concentration (nM):1000
Observed property: Percent Control (%)
Enter your answer as a number in %; do not include the unit.

Query: What value of Percent Control has been reported for the following compound? CN(C)CCNC(=O)Nc1ccc(N(C)c2ccnc(Nc3ccc(CS(C)(=O)=O)cc3)n2)cc1.Cl [GW830900A]
Result: 30

Query: # get_value(readout='Percent Control', item= CC(C)COC(=O)c1ccc2c(c1)/C(=C/Nc1ccc(S(N)(=O)=O)cc1)C(=O)N2 [GW416981X] )
Result: 6.8

Query: GET /values?readout=Percent Control&item= Cc1cc(O)cc(C)c1/C=C/c1cncc(C(N)=O)c1 [GW435821X]
Result: 98

###

Test system: PRKD3
Settings: Compound Concentration (nM):1000
Can you tell me Percent Control for the items I'm about to list?
Hi! Could you send only the number? It should be in %, unit omitted.

Query: Under PRKD3: Percent Control value of "COc1cc(C)c(N(C)C(=O)CN(C)C)cc1Nc1nc(Nc2cccc(F)c2C(N)=O)c2cc[nH]c2n1" ?
Result: 88

Query: Give Percent Control (PRKD3) of the following compound: COc1cc(C=NNc2ncnc3c2cnn3-c2ccccc2)ccc1O [GW513184X]
Result: 100

Query: So what Percent Control did Cc1cc(O)cc(C)c1/C=C/c1cncc(C(N)=O)c1 [GW435821X] get with PRKD3?
Result: 79

Query: For the record CC1=C(C(=O)Nc2ccc3[nH]ncc3c2)C(c2ccc(Cl)c(Cl)c2)CC(=O)N1 (centres unmarked) [GSK299115A] , what value of Percent Control is listed for PRKD3?
Result: 47

Query: Hello, I am looking for reported Percent Control with PRKD3 for Cl.O=S1CCN(Cc2ccc(-c3ccc4ncnc(Nc5ccc(OCc6ccccc6)c(F)c5)c4c3)o2)CC1 [GW576924A] . Could you help?
Result: 100

###

For each of the compounds below, state its Percent Control.
System: IKK-beta
Construct: gene IKBKB
Details: Compound Concentration (nM):1000
Your answer should be a plain number; it is taken to be in %.

Query: Hello, I am looking for reported Percent Control with IKK-beta for COc1cc2ncnc(Nc3ccc4c(cnn4Cc4ccccc4)c3)c2cc1OC.Cl [GW282449A] . Could you help?
Result: 100

Query: What reported Percent Control corresponds to CCn1c(-c2nonc2N)nc2c(C#CC(C)(C)O)nc(OCCNC)cc21.Cl [GSK949675] on IKK-beta?
Result: 98

Query: What is its Percent Control for IKK-beta? Entry: Cl.O=C(Nc1ccc(Oc2ccc3[nH]c(NC(=O)c4ccccc4)nc3c2)cc1)Nc1cc(C(F)(F)F)ccc1F [GW709042A]
Result: 100

Query: GET /values?readout=Percent Control&system=IKK-beta&item= COC(=O)Nc1nc2ccc(Oc3ccc(NC(=O)Nc4cc(C(F)(F)F)ccc4F)cc3)cc2s1.Cl [GW693917A]
Result: 100

###

Tested on: PIK3CG
Details: Compound Concentration (nM):1000
Observed property: Percent Control (%)
State the answer as a number, implicitly in %.

Query: Please look up its Percent Control: "NS(=O)(=O)c1ccc(N/N=C2\C(=O)Nc3ccc(-c4cnco4)cc32)cc1"
Result: 83

Query: Reported Percent Control, compound CC(C)COC(=O)c1ccc2c(c1)/C(=C/Nc1ccc(S(N)(=O)=O)cc1)C(=O)N2 [GW416981X] : ____
Result: 100

Query: Return reported Percent Control; argument: NS(=O)(=O)c1ccc(Nc2ncc(-c3ccccc3)o2)cc1 [GW572399X]
Result: 100

Query: Could you share which Percent Control value was measured for "COc1ccc2cc(-c3c(-c4ccncc4)nc(-c4ccc(S(C)(=O)=O)cc4C)n3C)ccc2c1" ?
Result: 79

Query: What value of measured Percent Control is listed for CN(C)CCNC(=O)Nc1ccc(N(C)c2ccnc(Nc3ccc(CS(C)(=O)=O)cc3)n2)cc1.Cl [GW830900A] ?
Result: 91

Query: Consider the compound CC1=C(C(=O)Nc2ccc3[nH]ncc3c2)C(c2ccc(Cl)c(Cl)c2)CC(=O)N1 (stereo not drawn) [GSK299115A] and give its measured Percent Control.
Result: 93

Query: Reported Percent Control, compound CCS(=O)(=O)c1ccc(OC)c(Nc2ncc(-c3cccc(F)c3)o2)c1 [GW621970X] : ____
Result: 100

Query: Recorded Percent Control of Nc1ncnc2occ(-c3ccc(NC(=O)Nc4cc(C(F)(F)F)ccc4F)cc3)c12 [GW770249X] , please.
Result: 100

Query: Value lookup for Percent Control; key = "CCc1ccc(Oc2nccc(-c3c(-c4ccc(F)cc4)ncn3C3CCNCC3)n2)cc1"
Result: 95
